procedure_details: Human HepG2 cell viability assay in 384 well format
Format: toxicity, cell-based
Parameters: dose 125 nL, time 70.5 hour; concentration not given beside the values
settings: HepG2 cells, read-out: Inhibition
measured_property: cytotoxicity at 70.5 h
Report field: quantity (unit follows the number).

// worked examples, cytotoxicity at 70.5 h included
In [3]: df
Out[3]:
                                   molecule  result_value
0  Cc1ccc(C)c(C(=O)Nc2ccc(OC3CCN(C)CC3)cc2)c1        -6.52%
1     O=c1cc(Cn2cncn2)nc2n1CCCN(Cc1ccoc1)C2       -0.379%
2  Cc1cc(C)c(CNC(=O)N2CCCC2C(N)=O)c(=O)[nH]1 (stereo not given)        -4.33%
3  O=C1CCCN1CC1CN(C(=O)C2CCOCC2)Cc2nccn2C1 (stereo not given)        -1.66%

Entry under review: `CS(=O)(=O)NCCCNC(=O)NCc1ccccc1` . Reported cytotoxicity at 70.5 h?
-8.73%

Reported cytotoxicity at 70.5 h for `O=C(CC1CC1)N1CCC2(CCCN(c3ncccn3)C2)CC1` : what is it?
-10.9%

Value lookup for cytotoxicity at 70.5 h; key = `O=C(N[C@@H]1CCNC[C@H]1O)c1ccc(O)c(Cl)c1`
-8.26%

So what does the record say about cytotoxicity at 70.5 h for CS(=O)(=O)N1CCC2(CC1)CC(CC(=O)NCC1CC1)c1ccccc12 (stereo not given) ?
5.79%

Which cytotoxicity at 70.5 h is reported for this molecule? `Cc1nnc(NC(=O)NCc2ccoc2)s1`
-2.74%

Query (molecule): `Cc1oncc1C(=O)N1CCC2(CC1)CC(N1CCOCC1)C2` ; field requested: cytotoxicity at 70.5 h
-11.3%

Sample `COCCn1ccc(=O)c(OCC(=O)Nc2cccc(Cl)c2)c1C` — what was its cytotoxicity at 70.5 h?
-8.65%

# input molecule: `CN(C)C(=O)N1CCN(Cc2nc3ccccc3[nH]2)[C@H]2CS(=O)(=O)C[C@H]21` ; wanted: its cytotoxicity at 70.5 h
25%

GET /values?readout=cytotoxicity at 70.5 h&item= `CCC(=O)N1CCc2nc(N3CCOCC3)nc(N(C)C)c2CC1`
35.1%

Which cytotoxicity at 70.5 h is reported for this molecule? Cn1nnc2c1CCN(Cc1nccs1)C2COCc1ccccc1 (stereo not given)
-2.36%

----------
procedure_details: Human HepG2 cell viability assay in 384 well format
Format: toxicity, cell-based
Parameters: dose 125 nL, time 70.5 hour; concentration not given beside the values
settings: HepG2 cells, read-out: Inhibition
# reported cytotoxicity at 70.5 h; entries follow
# output: bare number, implied unit %

# input compound: `Nc1cccc(-c2cccc3ccnn23)n1` ; wanted: its cytotoxicity at 70.5 h
-6.36

# lookup: cytotoxicity at 70.5 h of `Cc1cccc(COC[C@]23COC[C@H]2CN(c2ncccn2)C3)n1`
-10.2

Can you look up the measured cytotoxicity at 70.5 h of CCOCc1nc2c(c(N3CCN4CCCC4C3)n1)CCNCC2 (stereo not given) for me?
-13.6

For the compound shown here, Cn1cc(CN2CCC(F)(F)C3(CCN(c4cccnc4)C3)C2)cn1 (stereo not given) , give the reported cytotoxicity at 70.5 h.
-9.49

What value of measured cytotoxicity at 70.5 h is listed for `Cn1nc(C(=O)N(CC(F)(F)F)c2cccc(Cl)c2)ccc1=O` ?
9.92

----------
procedure_details: Human HepG2 cell viability assay in 384 well format
Format: toxicity, cell-based
Design: dose 125 nL, time 70.5 hour; concentration not given beside the values
settings: HepG2 cells, read-out: Inhibition
measured_property: cytotoxicity at 70.5 h (%)
The figure you give is taken to be in %; do not add the unit.

The examples below pair each entry with its known result.
>>> df
                                   compound  unit_tag  result_value
0  CCc1ccc(C(=O)N2CCN(CC(O)c3ccccc3)CC2)o1 (centres undefined)         %          1.67
1  CC(NC(=O)N1CCC(n2cncn2)CC1)c1ccc(F)cc1F (centres undefined)         %         -13.6
2    Cc1ccccc1N1CCCN(C(=O)CCCS(N)(=O)=O)CC1         %          15.2
3  CN(C)C(=O)Cn1c2c(ccc1=O)CC(NCc1cccnc1)CC2 (centres undefined)         %         -10.4
4    CN(C)c1nc2n(c(=O)n1)CCN2C(=O)Nc1ccccc1         %         -5.25
5          O=C(CCNC1(c2nccs2)CCCC1)N1CCOCC1         %          7.56
6  CN(Cc1cnn(C)c1)C1CCCN(Cc2noc(C3CC3)n2)C1 (centres undefined)         %          50.1
7   Cc1cc(C)cc(OCC(=O)N2CCCN(CC(N)=O)CC2)c1         %         -16.4
8  CCc1nc(CC2CN(c3ncnc4nc(C)cc(C)c34)CCO2)no1 (centres undefined)         %           -19
9        O=C(NC1CCCCC1)c1ccc(COCC(F)(F)F)o1         %          19.8

I would be grateful if you could share the reported cytotoxicity at 70.5 h for CC1CCN(C(=O)C(C)n2cc(Br)cn2)CC1 (centres undefined) .
-3.34

# cytotoxicity at 70.5 h lookup, item `CC(C)CNC(=O)c1ccc2c(c1)nc1n2CCN(Cc2ccco2)C1`
-0.527

Need cytotoxicity at 70.5 h of `CCn1c(N)nc2cc(C(=O)NCCc3sccc3C)cnc21` , thanks.
-4.44

For `Cc1ccc(C)c2c(O)cc(CN[C@H]3CCCCNC3=O)nc12` , what is its reported cytotoxicity at 70.5 h?
-6.91

----------
Recorded cytotoxicity at 70.5 h for the following compounds
procedure_details: Human HepG2 cell viability assay in 384 well format
Assay type: toxicity, cell-based
Set-up: dose 125 nL, time 70.5 hour; concentration not given beside the values
settings: HepG2 cells, read-out: Inhibition
The reply should be a number in %, with the unit left off.

Worked cases, answers included:
In [3]: df
Out[3]:
                                   compound       measured_property  result_value
0  CC(C)NC(=O)C1CN(C(=O)NCc2ccccc2)CC12CCOCC2 (configuration not stated)  cytotoxicity at 70.5 h          1.12
1  O=C(NCC1CC1)C1CCC2(CCN(C(=O)c3ccco3)CC2)O1 (configuration not stated)  cytotoxicity at 70.5 h         -15.5
2  COc1ncnc2c1CCN(CC1CCOC1)CC2 (configuration not stated)  cytotoxicity at 70.5 h         -13.6
3  COCCn1ccnc1C1CCCN(C(=O)CSCC2CC2)C1 (configuration not stated)  cytotoxicity at 70.5 h         -3.02
4  COC(=O)CCC(=O)N1CCC2(CN(Cc3ccc(Cl)cc3)C2)C1  cytotoxicity at 70.5 h         -6.67

Then this compound:
# lookup: cytotoxicity at 70.5 h of `CC(C)NC(=O)COc1nc(C(C)C)no1`
18

----------
Listing of entries alongside the reported cytotoxicity at 70.5 h.
procedure_details: Human HepG2 cell viability assay in 384 well format
Assay type: toxicity, cell-based
Design: dose 125 nL, time 70.5 hour; concentration not given beside the values
settings: HepG2 cells, read-out: Inhibition
Field format: number, assumed %, no unit text.

// worked examples, cytotoxicity at 70.5 h included
>>> print(df.to_string())
                                   compound       measured_property  result_value
0         CN(C)c1ncccc1CNS(=O)(=O)c1ccccc1F  cytotoxicity at 70.5 h         -27.7
1  Cn1cc(C(C)(O)CNC(=O)c2ccc(Br)s2)cn1 (centres undefined)  cytotoxicity at 70.5 h          48.4
2  O=C1CC[C@@H]2[C@@H](CCN2C(=O)c2ccsc2)N1CC1CC1  cytotoxicity at 70.5 h          -6.8
3         CCOCC(=O)N1CCC2(CC1)COCCN2CCN(C)C  cytotoxicity at 70.5 h          -9.1

Entry Cc1ccc(-c2nc(CN3CCOC(Cn4cccn4)C3)no2)cc1 (centres undefined) has what cytotoxicity at 70.5 h?
-4.16

Quick check: cytotoxicity at 70.5 h of Cc1nnc(C(C)N(C)Cc2c(C)nn(-c3ccccc3C)c2C)o1 (centres undefined) ?
2.96

I would be grateful if you could share the reported cytotoxicity at 70.5 h for NC(=O)c1cccc(OCCC(=O)NC2CCc3c(F)cccc32)c1 (centres undefined) .
-9.97

Need cytotoxicity at 70.5 h, item c1cnnc(NCC2CN(Cc3ccon3)CCO2)c1 (centres undefined)
26.6

Query (compound): Cc1ccn2cc(C(=O)N3CCCC(Cn4cc(CO)nn4)C3)nc2c1 (centres undefined) ; field requested: cytotoxicity at 70.5 h
17.5

Which cytotoxicity at 70.5 h value is on record for `O=C(CNc1ccccc1S(=O)(=O)C(F)F)NCc1ccco1` ?
-5.76

For the compound `COc1cc(Cl)ccc1C(=O)NCc1nncn1C` , what cytotoxicity at 70.5 h is on record?
-6.32

# query: cytotoxicity at 70.5 h of entry Cc1nn(C)c2sc(C(=O)N3CCCC(n4ccnc4C)C3)cc12 (centres undefined)
-7.74

Consider the compound `c1cc(-c2ccc3c(c2)C2(CCNCC2)CC3)ccn1` and give its measured cytotoxicity at 70.5 h.
50.6

If you can, please state the reported cytotoxicity at 70.5 h value of CC1(COc2ccccc2)NCCc2[nH]cnc21 (centres undefined) .
-2.27

Data provenance: ChEMBL document CHEMBL3507680
